Reported pKd is given for each of the following variants.
B1: NELF-E aptamer (parent)
chain: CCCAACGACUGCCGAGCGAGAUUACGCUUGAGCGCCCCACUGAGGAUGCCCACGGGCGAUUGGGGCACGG

Variants of: B1
Procedure Summary: HiTS-RAP
Test Settings: with NELF-E (Drosophila)
pKd: −log10 of the molar value.

{"columns": ["Mutation Label", "pKd"],
 "data": [
  ["A19G G55A", 8.10],
  ["G7U A8C", 8.13],
  ["A24G G32U", 8.18],
  ["G11U A52G", 8.42],
  ["G7U G34U", 8.11],
  ["U29G G64A", 8.13],
  ["A19G G65A", 8.21],
  ["C13A", 8.28],
  ["A15U U29G", 8.17],
  ["U10G C36U", 8.16],
  ["C12G A52U", 7.79],
  ["U10G G34A", 8.16],
  ["G18U", 8.25],
  ["C9G G45A", 7.45],
  ["A4G C53G", 8.12],
  ["U23G A24U", 8.22],
  ["A4G G65A", 8.26],
  ["C6U G11A", 8.26],
  ["A4U G14A", 8.22],
  ["C6G G65A", 8.35],
  ["A5G G63A", 7.85],
  ["U23G U47G", 8.18],
  ["A8G G20U", 8.20],
  ["U10G A59G", 7.24],
  ["A31G A39G", 7.85],
  ["C12G A19G", 8.23],
  ["G7A C13G", 8.19],
  ["G34A U41G", 8.12],
  ["U22G A24U", 8.13],
  ["U22G C40G", 8.19],
  ["C9G C51U", 8.09],
  ["G14U C40U", 7.27],
  ["U23G G65U", 8.18],
  ["G11U U28C", 8.03],
  ["U29A A39U", 7.68],
  ["A5G G30A", 8.27],
  ["G18U A24G", 8.22],
  ["G20U U29G", 8.21],
  ["C6G G14U", 8.21],
  ["A5U U22C", 8.29],
  ["U41G A46U", 7.20],
  ["C9G U29A", 8.22],
  ["C6G G45U", 8.00],
  ["C6G U23G", 8.32],
  ["U29G C33G", 8.19]
]}
